System: colon (HCT116) tumor cell line
Test: Methylene Blue Growth Inhibition Assay, HCT116
Assay type: cell-based
Conditions: Homo sapiens, HCT-116, 72 h; Cell Line HCT116, 3 days; read-out: MeB IC50
RECORDED ENDPOINT: IC50

- COMPOUND: "O=C(O)c1sc(-n2cnc3cc(Cl)c(Cl)cc32)cc1OCc1cccs1 [Example 80]"
  RESULT: "> 10 µM"
- COMPOUND: "COC(=O)c1sc(-n2cnc3cc(OC)c(OC)cc32)cc1OS(=O)(=O)C(F)(F)F [Example 150]"
  RESULT: "> 10 µM"
- COMPOUND: "COc1cc2ncn(-c3cc(OCc4ccc(C(N)=O)cc4)c(C(N)=O)s3)c2cc1OC [Example 104]"
  RESULT: "1 to 10 µM"
- COMPOUND: "COc1cc2ncn(-c3cc(OCc4ccccc4C(F)(F)F)c(-c4nnn[nH]4)s3)c2cc1OC [Example 147]"
  RESULT: "> 10 µM"
- COMPOUND: "COc1cc2ncn(-c3cc(OCc4ccccc4-c4ccccc4)c(C(N)=O)s3)c2cc1OC [Example 93]"
  RESULT: "> 10 µM"
- COMPOUND: "COc1cc2ncn(-c3cc(OC(C)c4ccccc4C(F)(F)F)c(C(N)=O)s3)c2cc1OC (centres unmarked) [Example 127]"
  RESULT: "< 1 µM"
- COMPOUND: "COc1cc2ncn(-c3cc(OS(=O)(=O)c4ccccc4[N+](=O)[O-])c(C(N)=O)s3)c2cc1OC [Example 153]"
  RESULT: "> 10 µM"
- COMPOUND: "COc1cc2ncn(-c3cc(OCCc4ccccc4)c(C(N)=O)s3)c2cc1OC [Example 114]"
  RESULT: "> 10 µM"
- COMPOUND: "NC(=O)c1sc(-n2cnc3ccc(OCCN4CCOCC4)cc32)cc1OCc1ccccc1C(F)(F)F [Example 138]"
  RESULT: "1 to 10 µM"
- COMPOUND: "COc1cc2ncn(-c3cc(OCCCc4ccccc4)c(C(N)=O)s3)c2cc1OC [Example 115]"
  RESULT: "1 to 10 µM"
- COMPOUND: "COc1ccc(COc2cc(-n3cnc4cc(OC)c(OC)cc43)sc2C(N)=O)cc1 [Example 128]"
  RESULT: "> 10 µM"
- COMPOUND: "COc1cc2ncn(-c3cc(OCc4ccccc4C(F)(F)F)c(C(N)=S)s3)c2cc1OC [Example 145]"
  RESULT: "> 10 µM"
- COMPOUND: "COc1cc2ncn(-c3cc(OS(=O)(=O)c4ccccc4C)c(C(=O)O)s3)c2cc1OC [Example 151]"
  RESULT: "> 10 µM"
- COMPOUND: "NC(=O)c1sc(-n2cnc3ccccc32)cc1CCc1ccccc1 [Example 130]"
  RESULT: "1 to 10 µM"
- COMPOUND: "NC(=O)c1sc(-n2cnc3cc(F)c(OCCN4CCOCC4)cc32)cc1OCc1ccccc1C(F)(F)F [Example 140]"
  RESULT: "1 to 10 µM"
- COMPOUND: "NC(=O)c1ccc2c(c1)ncn2-c1cc(OCc2ccccc2C(F)(F)F)c(C(N)=O)s1 [Example 125]"
  RESULT: "1 to 10 µM"
- COMPOUND: "COc1cc2ncn(-c3cc(OCc4cccnc4Cl)c(C(N)=O)s3)c2cc1OC [Example 101]"
  RESULT: "1 to 10 µM"

====

Overview of reported pIC50 across a group of molecules:
Tested on: colon (HCT116) tumor cell line
Assay: Methylene Blue Growth Inhibition Assay, HCT116
Format: cell-based
Settings: Homo sapiens, HCT-116, 72 h; Cell Line HCT116, 3 days; read-out: MeB IC50
pIC50: −log10 of the molar value. Where a name gives a salt, the structure may show the parent alone.
RECORDED ENDPOINT: pIC50

- MOLECULE: "COc1cc2ncn(-c3cc(OS(=O)(=O)c4ccccc4C)c(C(N)=O)s3)c2cc1OC"
  RESULT: "5.00 to 6.00"
- MOLECULE: "COc1cc2ncn(-c3cc(OCc4ccccc4C(F)(F)F)c(C(N)=O)s3)c2cc1OC"
  RESULT: "> 6.00"
- MOLECULE: "NC(=O)c1sc(-n2cnc3ccccc32)cc1OCc1ccccc1C(F)(F)F"
  RESULT: "5.00 to 6.00"
- MOLECULE: "NC(=O)c1sc(-n2cnc3ccccc32)cc1NS(=O)(=O)c1ccccc1"
  RESULT: "< 5.00"
- MOLECULE: "COC(=O)c1sc(-n2cnc3cc(OC)c(OC)cc32)cc1OS(=O)(=O)c1ccccc1[N+](=O)[O-]"
  RESULT: "5.00 to 6.00"
- MOLECULE: "NC(=O)c1sc(-n2cnc3ccc(OCC4CCNCC4)cc32)cc1OCc1ccccc1C(F)(F)F"
  RESULT: "> 6.00"
- MOLECULE: "COc1cc2ncn(-c3cc(O)c(C(N)=O)s3)c2cc1OC [Example 152, trifluoroacetate]"
  RESULT: "< 5.00"
- MOLECULE: "COc1cc2ncn(-c3cc(OCc4cccc(N)c4)c(C(N)=O)s3)c2cc1OC"
  RESULT: "5.00 to 6.00"

====

Molecular target: PLK1 kinase domain (Homo sapiens, UniProt P53350)
Construct: made in house; host or cells: baculovirus-infected T. ni insect cells
Sequence (P53350 21-346): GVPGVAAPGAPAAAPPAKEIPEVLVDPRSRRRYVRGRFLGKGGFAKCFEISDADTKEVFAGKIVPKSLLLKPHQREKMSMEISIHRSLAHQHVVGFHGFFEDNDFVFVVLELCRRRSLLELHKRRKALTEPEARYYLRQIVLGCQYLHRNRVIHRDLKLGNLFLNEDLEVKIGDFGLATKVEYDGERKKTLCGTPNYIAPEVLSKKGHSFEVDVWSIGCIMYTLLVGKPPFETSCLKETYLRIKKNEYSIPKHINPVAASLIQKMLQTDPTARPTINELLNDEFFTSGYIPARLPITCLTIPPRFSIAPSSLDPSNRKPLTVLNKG
Assay: Assay for Inhibition of PLK1 (SPA enzyme activity)
Type: biochemical
Details: 2 μM ATP, read-out: Ave pIC50 PLK Enzyme Inhibition (converted)
Experimental: All procedures were performed at 4° C. Cells were lysed in so mM HEPES, 200 mM NaCl, so mM imidazole, 5% glycerol; pH 7.5. The homogenate was centrifuged at 14K rpm in a SLA-1500 rotor for 1 hr and the supernatant filtered through a 1.2 micron filter. […] Fractions containing PLK were determined by SDS-PAGE. […] Fractions containing PLK were determined by SDS-PAGE. […] B. Enzyme activity+/−inhibitors was determined as follows: […]

- COMPOUND: "NC(=O)c1sc(-n2cnc3ccccc32)cc1CCc1ccccc1 [Example 130]"
  IC50: "100 to 10000 nM"
- COMPOUND: "CC(=O)c1sc(-n2cnc3ccc(Cl)cc32)cc1OCc1ccccc1C [Example 39]"
  IC50: "100 to 10000 nM"
- COMPOUND: "O=C(O)c1sc(-n2cnc3cc(Cl)c(Cl)cc32)cc1OCc1ccsc1 [Example 79]"
  IC50: "< 100 nM"
- COMPOUND: "C#Cc1ccccc1COc1cc(-n2cnc3cc(OC)c(OC)cc32)sc1C(N)=O [Example 106]"
  IC50: "< 100 nM"
- COMPOUND: "COc1cc2ncn(-c3cc(OS(=O)(=O)c4ccccc4C)c(C(=O)O)s3)c2cc1OC [Example 151]"
  IC50: "< 100 nM"
- COMPOUND: "COc1cc2ncn(-c3cc(OCc4ccccc4C(F)(F)F)c(C(N)=O)s3)c2cc1OCCN1CCOCC1 [Example 137]"
  IC50: "< 100 nM"
- COMPOUND: "O=C(O)c1sc(-n2cnc3ccc(Cl)cc32)cc1OCc1ccc(F)cc1F [Example 71]"
  IC50: "< 100 nM"
- COMPOUND: "NC(=O)c1sc(-n2cnc3ccccc32)cc1NCc1ccccc1C(F)(F)F [Example 133]"
  IC50: "100 to 10000 nM"

====

# reported IC50; entries follow
Target: PLK1 kinase domain (Homo sapiens, UniProt P53350)
Construct: made in house; host or cells: baculovirus-infected T. ni insect cells
Test: Assay for Inhibition of PLK1 (SPA enzyme activity)
Assay type: biochemical
Conditions: 2 μM ATP, read-out: Ave pIC50 PLK Enzyme Inhibition (converted)
RECORDED ENDPOINT: IC50

- COMPOUND: "NC(=O)c1sc(-n2cnc3cc4c(cc32)OCCCO4)cc1OCc1ccccc1C(F)(F)F"
  MEASURED ON: "PLK1 kinase domain (Homo sapiens, UniProt P53350)"
  RECORDED ENDPOINT: "IC50"
  RESULT: "< 100 nM"
- COMPOUND: "COc1cc2ncn(-c3cc(OCc4cccc(N(C)C)c4)c(C(N)=O)s3)c2cc1OC"
  MEASURED ON: "PLK1 kinase domain (Homo sapiens, UniProt P53350)"
  RECORDED ENDPOINT: "IC50"
  RESULT: "< 100 nM"
- COMPOUND: "COc1cc2ncn(-c3cc(OCC4CCCCO4)c(C(N)=O)s3)c2cc1OC (centres unmarked)"
  MEASURED ON: "PLK1 kinase domain (Homo sapiens, UniProt P53350)"
  RECORDED ENDPOINT: "IC50"
  RESULT: "100 to 10000 nM"
- COMPOUND: "COc1cc2ncn(-c3cc(OCc4ccncc4Br)c(C(N)=O)s3)c2cc1OC"
  MEASURED ON: "PLK1 kinase domain (Homo sapiens, UniProt P53350)"
  RECORDED ENDPOINT: "IC50"
  RESULT: "< 100 nM"
- COMPOUND: "COc1cc2ncn(-c3cc(OCc4ccc(C(N)=O)cc4)c(C(N)=O)s3)c2cc1OC"
  MEASURED ON: "PLK1 kinase domain (Homo sapiens, UniProt P53350)"
  RECORDED ENDPOINT: "IC50"
  RESULT: "< 100 nM"
- COMPOUND: "COc1cc2ncn(-c3cc(OCCN4CCOCC4)c(C(N)=O)s3)c2cc1OC"
  MEASURED ON: "PLK1 kinase domain (Homo sapiens, UniProt P53350)"
  RECORDED ENDPOINT: "IC50"
  RESULT: "100 to 10000 nM"
- COMPOUND: "CS(=O)(=O)Nc1ccc2ncn(-c3cc(OCc4ccccc4C(F)(F)F)c(C(N)=O)s3)c2c1"
  MEASURED ON: "PLK1 kinase domain (Homo sapiens, UniProt P53350)"
  RECORDED ENDPOINT: "IC50"
  RESULT: "< 100 nM"
- COMPOUND: "NC(=O)c1sc(-n2cnc3cc(F)c(OCCN4CCOCC4)cc32)cc1OCc1ccccc1C(F)(F)F"
  MEASURED ON: "PLK1 kinase domain (Homo sapiens, UniProt P53350)"
  RECORDED ENDPOINT: "IC50"
  RESULT: "< 100 nM"
